Hey, just so you know, these numbers are from patent US20240180954A1.

Test: Storage stability: change in encapsulation rate after 4 weeks at room temperature
Format: physicochemical
Settings: LNP encapsulating siRNA 2; 4 weeks at room temperature in sealed vials
PROPERTY: Change in encapsulation rate Δ (%)
Only the number, expressed in %, is required.

Guide cases for Change in encapsulation rate Δ (%), answers given:
[
  {
    "COMPOUND": "CCCCCCCCCC(CCCCCCCCC(=O)OCC(CCCC)CCCCCC)OC(=O)C1CCN(C)CC1 (stereo not shown) [YS-119, reference compound]",
    "MEASUREMENT UNIT": "%",
    "Change in encapsulation rate Δ (%)": "−5.2"
  },
  {
    "COMPOUND": "CCCCCC(CCCCC)CCOC(=O)CCCCCCCC(CCCCCCCC(=O)OCCC(CCCCC)CCCCC)COC(=O)CSC1CCN(C)CC1",
    "MEASUREMENT UNIT": "%",
    "Change in encapsulation rate Δ (%)": "−0.1"
  },
  {
    "COMPOUND": "CCCCCC(CCCCC)CCOC(=O)CCCCCCCC(CCCCCCCC(=O)OCCC(CCCCC)CCCCC)OC(=O)COC(C)CN(C)C (stereo not shown)",
    "MEASUREMENT UNIT": "%",
    "Change in encapsulation rate Δ (%)": "−0.9"
  }
]

Alright, here's another compound for you.
Reported Change in encapsulation rate Δ (%) of `CCCCCCC(CCCCCC)CCOC(=O)CCCCCCCC(CCCCCCCC(=O)OCCC(CCCCCC)CCCCCC)OC(=O)CSC1CCN(C)CC1` : −0.5

---

In this section, each of the compounds is paired with its reported Particle size (nm).
Experiment: Average particle size of the LNP encapsulating nucleic acid (Zetasizer Nano ZS)
Type: physicochemical
Settings: LNP encapsulating siRNA 2 (Table 13)
Only the number, expressed in nm, is required.

[
  {
    "COMPOUND": "CCCCCC(CCCCC)CCOC(=O)CCCCCCCC(CCCCCCCC(=O)OCCC(CCCCC)CCCCC)OC(=O)COC1CCN(CCO)CC1 [Compound I-65]",
    "PROPERTY": "Particle size (nm)",
    "MEASUREMENT UNIT": "nm",
    "VALUE REPORTED": 69.0
  },
  {
    "COMPOUND": "CCCCCC(CCCCC)CCOC(=O)CCCCCCC(CCCCCCC(=O)OCCC(CCCCC)CCCCC)OC(=O)COC1CCN(C)CC1 [II-3]",
    "PROPERTY": "Particle size (nm)",
    "MEASUREMENT UNIT": "nm",
    "VALUE REPORTED": 79.6
  },
  {
    "COMPOUND": "CCCCCC(CCCCC)CCOC(=O)CCCCCCCC(CCCCCCCC(=O)OCCC(CCCCC)CCCCC)OC(=O)C1CC(N(C)C)CCO1 (stereo not shown) [Compound I-88]",
    "PROPERTY": "Particle size (nm)",
    "MEASUREMENT UNIT": "nm",
    "VALUE REPORTED": 87.8
  }
]

Alright, here's another compound for you.
Reported Particle size (nm) of CCCCCC(CCCCC)CCOC(=O)CCCCCCCC(CCCCCCCC(=O)OCCC(CCCCC)CCCCC)NC(=O)COC1CCN(C)CC1 [Compound I-80] : 60.6
